Data credit: patent US20260327234A1

- subject_of_test: testosterone (T) production in NCI-H295R cells (Homo sapiens)
- Construct: testosterone measured by LC-MS/MS as downstream steroid
- experimental_protocol: H295R Steroid Biosynthesis Inhibition Assay - inhibition of testosterone (T) production in NCI-H295R cells
- conditions_used: 48 h, LC-MS/MS, read-out: Inh. of T IC50
pIC50: −log10 of the molar value.
So I've got a bunch of compounds here, and I need their pIC50 values.

Return reported pIC50; argument: O=c1cc(CN2Cc3ccccc3C2)oc2cc([C@H]3CC4CCC(C3)[C@H]4O)oc12
7.00 to 7.39

Return reported pIC50; argument: O=C(c1ncccn1)N1CCC(c2cnc3cc(CN4Cc5ccccc5C4)ccc3n2)CC1
≤ 7.00

Return reported pIC50; argument: C[C@]1(O)CC[C@@H](c2cc3oc(CN4Cc5ccccc5C4)cc(=O)c3o2)CC1
≤ 7.00

Return reported pIC50; argument: CS(=O)(=O)N1CCC2(CC1)CC(c1cc3oc(CN4Cc5ccccc5C4)cc(=O)c3o1)C2
≥ 7.40
